assay details: Nrf2 qHTS screen for inhibitors: Validation (AID 493153)
test settings: A549 ARE-Fluc reporter, 18-24 h; luciferase luminescence
Results filed as inconclusive are left out. Activity calls are given as the source filed them. Calls follow the shape of the dose curve; as a rule, active = well fitted inhibition curve with a large enough effect in the main read-out, with a control signal flat (not every such curve was filed as active); inconclusive = small, poorly fitted or top-dose-only effect, or effect the other way, or a change in a side signal; inactive = no such curve, though single readings can be large or run the other way.
// allowed return values: Y = active, N = inactive

These recorded examples may help you get a feel for the data.
CCCN1CCC[C@@H]2Cc3nc(N)ncc3C[C@H]21    N
Cc1cccc(C)c1NC1=NCCCS1    N

Which outcome did this test record for the molecule COc1ccc(Cc2nccc3cc(OC)c(OC)cc23)cc1OC ?
Y

Please indicate how the test categorized CC(O)(CS(=O)(=O)c1ccc(F)cc1)C(=O)Nc1ccc(C#N)c(C(F)(F)F)c1 (configuration not stated) .
N

Kindly provide the recorded test outcome for the following molecule: COc1ccccc1N1CCNCC1
N

How was O=C1NCN(c2ccccc2)C12CCN(CC1COc3ccccc3O1)CC2 (configuration not stated) classified in this test?
N

Could you kindly confirm the outcome this assay logged for Nc1ccncc1 ?
N

Record lookup: outcome of this test for CC[C@@H](CO)NC(=O)[C@@H]1C=C2c3cccc4c3c(cn4C)C[C@H]2N(C)C1 ?
N
